MIC values by entry
system: P. aeruginosa ATCC 27853; assay: microbe, parasite or virus in culture; assay type: cell-based; conditions: Pseudomonas aeruginosa, ATCC27853, read-out: Minimum inhibitory concentration, P. aeruginosa ATCC 27853

Worked cases, MIC given:
{"Molecule": "CN(CCN1CCN(C(=O)N[C@@H](C(=O)N[C@H]2Cc3ccc(F)c(C(=O)O)c3OB2O)c2cc(F)c(O)c(O)c2Cl)C(=O)C1=O)Cc1nccs1", "MIC": "< 1 µg/mL"}
{"Molecule": "O=C(O)c1c(F)ccc2c1OB(O)[C@@H](NC(=O)C(NC(=O)N1CCN(C3CCN(C(=O)Nc4cccc(O)c4F)CC3)C(=O)C1=O)c1cc(F)c(O)c(O)c1Cl)C2 (some centres unmarked)", "MIC": "2 to 4 µg/mL"}
{"Molecule": "O=C(O)c1c(F)ccc2c1OB(O)[C@@H](NC(=O)[C@H](NC(=O)N1CCN(C3CCN(Cc4cncc(O)c4)CC3)C1=O)c1cc(F)c(O)c(O)c1Cl)C2 (single isomer, unassigned)", "MIC": "< 1 µg/mL"}
{"Molecule": "O=C(O)c1c(F)ccc2c1OB(O)[C@@H](NC(=O)C(NC(=O)N1CCN(C3CCN(C(=O)Nc4c(F)ccc(O)c4F)CC3)C(=O)C1=O)c1cc(F)c(O)c(O)c1Cl)C2 (some centres unmarked)", "MIC": "< 1 µg/mL"}
{"Molecule": "O=C(O)c1c(F)ccc2c1OB(O)[C@@H](NC(=O)[C@H](NC(=O)N1CCN(C3CCN(C(=O)c4cc(O)c(O)c(Cl)c4)CC3)C1=O)c1ccc(P(=O)(O)O)cc1)C2", "MIC": "< 1 µg/mL"}
{"Molecule": "O=C(O)c1c(F)ccc2c1OB(O)[C@@H](NC(=O)[C@H](NC(=O)N1CCN(C3CCN(C(=O)c4cc(O)cc(O)c4)CC3)C1=O)c1cc(F)c(O)c(O)c1Cl)C2 (single isomer, unassigned)", "MIC": "< 1 µg/mL"}

Field MIC (entry O=C(NCCCN1CCN(C(=O)NC(C(=O)N[C@H]2Cc3ccc(F)c(C(=O)O)c3OB2O)c2cc(F)c(O)c(O)c2Cl)C(=O)C1=O)c1ccc(O)c(F)c1 (some centres unmarked) ) reads 2 to 4 µg/mL

So, O=C(O)c1c(F)ccc2c1OB(O)[C@@H](NC(=O)C(NC(=O)N1CCN(Cc3ccc(O)c(O)c3Cl)C1=O)c1ccc(P(=O)(O)O)cc1)C2 (some centres unmarked) ? Its MIC was 2 to 4 µg/mL
